# System: CAKI-1 renal
# Assay explanation: NCI-60 one-dose screen, 48 h (100 = growth as untreated, 0 = no growth, -100 = all killed)
# Assay conditions: 10 µM unless noted
Compounds without any hit were thinned out: in the full panel of roughly 83,000, 20% have a hit.
Reported growth is given for each of the following molecules.
Assay metric: growth (%)

INSERT INTO measurements (molecule, assay_metric, number) VALUES
  ('CC(=O)Nc1nc2c(s1)C1=CC[C@H]3[C@@H]4CC[C@H](OC(C)=O)[C@@]4(C)CC[C@@H]3[C@@]1(C)CC2', 'growth', 24.4),
  ('CN(C)c1ccc(N)cc1', 'growth', 78.2),
  ('CCC(=O)C(CC(C)N1CCCCCC1)(c1ccccc1)c1ccccc1 (stereo unspecified)', 'growth', 79),
  ('CC1=CC(=Nc2ccc(N(CCCl)CCCl)cc2)C=C(C)C1=O', 'growth', -44.9),
  ('CCC(=O)C(CC(C)[N+](C)(C)C)(c1ccccc1)c1ccccc1 (stereo unspecified)', 'growth', 95.4),
  ('S=P(SP(=S)(c1ccccc1)c1ccccc1)(c1ccccc1)c1ccccc1', 'growth', 97.9);
